System: COLO 205 colon
ASSAY_REMARKS: NCI tumour cell line growth inhibition, 384-well format; in the data active means GI50 below about 0.43 µM; inactive means the rest
Select the correct class. Options are yes (1) (active), no (0) (inactive) and nothing else.

Solved cases (3 shown):
INSERT INTO measurements (compound, discrete_label) VALUES
  ('Cc1ccccc1C(C(=O)NC1CCCCC1)N(C(=O)CNc1ncccc1F)c1cccc(F)c1 (centres undefined)', 'no (0)'),
  ('Cc1ccccc1C(C(=O)NC1CCCCC1)N(C(=O)CNc1ccc(C#N)cc1)c1cccc(F)c1 (centres undefined)', 'no (0)'),
  ('Cc1sc2c(c1C)C(c1ccc(Cl)cc1)=N[C@@H](CC(=O)NCCCN1CCN(C)CC1)c1nnc(C)n1-2', 'yes (1)');

Pending compound:
Which outcome did this test record for the compound `C=CC(=O)N1CC[C@H](n2nc(C#Cc3cc(OC)cc(OC)c3)c3c(N)ncnc32)C1` ?
no (0)

###

Tested on: SF-268 CNS
ASSAY_REMARKS: NCI tumour cell line growth inhibition, 384-well format
EXPERIMENTAL_READOUT: TGI (µM)
Your answer is read as µM, so omit the unit and give the number.

INSERT INTO measurements (molecule, experimental_readout, measurement) VALUES
  ('Cc1ccccc1C(C(=O)NC1CCCCC1)N(C(=O)CNc1ccc(C#N)cc1)c1cccc(F)c1 (centres undefined)', 'TGI', 55.9),
  ('C=CC(=O)Nc1cccc(Oc2nc(Nc3ccc(N4CCN(C)CC4)cc3OC)ncc2Cl)c1', 'TGI', 2.79);

For record `Nc1ncn([C@H]2C[C@H](OP(=O)(O)OC[C@H]3O[C@@H](n4cnc5c(=O)[nH]c(N)nc54)C[C@@H]3O)[C@@H](CO)O2)c(=O)n1` the listed TGI is 56.6

###

Listing: TGI of selected compounds
System: NCI-H23 lung
ASSAY_REMARKS: NCI tumour cell line growth inhibition, 384-well format
Residues, ends and D or L forms follow the SMILES beside them. *: point of attachment. Cbz = O=C(OCc1ccccc1)*

As a guide, the following entries are already answered.
INSERT INTO assay_data (compound, experimental_readout, measurement) VALUES
  ('Nc1ncn([C@H]2C[C@H](OP(=O)(O)OC[C@H]3O[C@@H](n4cnc5c(=O)[nH]c(N)nc54)C[C@@H]3O)[C@@H](CO)O2)c(=O)n1', 'TGI', '> 100 µM'),
  ('CC(C)C[C@@H](C=O)NC(=O)[C@H](CC(C)C)NC(=O)[C@H](CC(C)C)NC(=O)OCc1ccccc1 (Cbz-Leu-Leu-Leu-aldehyde)', 'TGI', '0.31 µM'),
  ('C=CC(=O)N1CC[C@H](n2nc(C#Cc3cc(OC)cc(OC)c3)c3c(N)ncnc32)C1', 'TGI', '28.6 µM');

Bench note, NCI-H23 lung: `Cc1sc2c(c1C)C(c1ccc(Cl)cc1)=N[C@@H](CC(=O)NCCCN1CCN(C)CC1)c1nnc(C)n1-2` , TGI reads 56.9 µM

###

Tested on: OVCAR-4 ovarian
ASSAY_REMARKS: NCI tumour cell line growth inhibition, 384-well format
EXPERIMENTAL_READOUT: TGI

INSERT INTO measurements (molecule, study_target, measurement) VALUES
  ('CC1Cc2ccccc2N1C(=O)Cc1nc(N2CCOCC2)cc(=O)[nH]1 (centres undefined)', 'OVCAR-4 ovarian', '> 100 µM');

Kindly note the recorded TGI for `Cc1[nH]nc2ncc(C(=O)N3CCC[C@H]3c3ccc(Cl)cc3)cc12` , which is > 100 µM

For reference, reported TGI for `C=CC(=O)N1CC[C@H](n2nc(C#Cc3cc(OC)cc(OC)c3)c3c(N)ncnc32)C1` stands at 25.6 µM

Lab note: `CN(C)Cc1c(C(=O)NCCOc2ccc(C(=O)NO)cc2)oc2ccccc12` gave TGI of 0.495 µM

Data origin: PubChem BioAssay (NCI)
